Give Vitamin content, percentage (%) of the initially incorporated amount for every item shown.
Test: Vitamin contents in transfusion fluid containers of Examples 4 and 5 after autoclaving and 40° C. four-month storage, bioassay (vitamin B12, biotin) or HPLC (other vitamins)
Format: physicochemical
Conditions: Example 4 transfusion fluid container; immediately after sterilization
// return numeric value only (unit: %, not printed)

Task item: Let me know recorded Vitamin content, percentage (%) of the initially incorporated amount for CC1=C(C/C=C(\C)CCC[C@H](C)CCC[C@H](C)CCCC(C)C)C(=O)c2ccccc2C1=O , thanks.
Reply: 96.2

Task item: Please indicate Vitamin content, percentage (%) of the initially incorporated amount recorded for Nc1nc2ncc(CNc3ccc(C(=O)N[C@@H](CCC(=O)O)C(=O)O)cc3)nc2c(=O)[nH]1
Reply: 97.8

Task item: Recall and state the measured Vitamin content, percentage (%) of the initially incorporated amount for C=C1CC[C@H](O)C/C1=C/C=C1\CCC[C@]2(C)[C@@H]([C@H](C)CCCC(C)C)CC[C@@H]12 .
Reply: 89.8

Task item: Check the records and state Vitamin content, percentage (%) of the initially incorporated amount for CC(C)(CO)[C@@H](O)C(=O)NCCCO
Reply: 97.4

Task item: Output measured Vitamin content, percentage (%) of the initially incorporated amount for this item: NC(=O)c1cccnc1 [Nicotinamide, nicotinamide]
Reply: 98.6

Task item: Give reported Vitamin content, percentage (%) of the initially incorporated amount value for CCCCCCCCCCCCCCCC(=O)OC/C=C(C)/C=C/C=C(C)/C=C/C1=C(C)CCCC1(C)C [Vitamin A, retinol palmitate]
Reply: 87.2

Task item: Please report Vitamin content, percentage (%) of the initially incorporated amount for the following compound: Cc1ncc(CO)c(CO)c1O.Cl [Pyridoxine hydrochloride (B6), pyridoxine hydrochloride]
Reply: 100.5

====

Experiment: Vitamin content of solution (C) in polyolefin holders after autoclaving and storage at 40° C. for four months, measured through HPLC (Example 3)
Format: physicochemical
Conditions: holder No. 2, polyethylene, 100 μm, resin 18.5 cm^3 per μmol vitamin D; after sterilization
I'd be grateful if you could share measured Vitamin content (%) of initially incorporated amount for these entries.
Quick reminder: number only, in %, skip the unit.

Task item: Supply Vitamin content (%) of initially incorporated amount value. Item: CC1=C(C/C=C(\C)CCC[C@H](C)CCC[C@H](C)CCCC(C)C)C(=O)c2ccccc2C1=O
Reply: 94.7

Task item: Report Vitamin content (%) of initially incorporated amount for CCCCCCCCCCCCCCCC(=O)OC/C=C(C)/C=C/C=C(C)/C=C/C1=C(C)CCCC1(C)C [Vitamin A, retinol palmitate]
Reply: 90.9

Task item: Indicate the recorded Vitamin content (%) of initially incorporated amount value for this compound: O=C1O[C@H]([C@@H](O)CO)C(O)=C1O
Reply: 97.1

Task item: // fetch Vitamin content (%) of initially incorporated amount given entry C=C1CC[C@H](O)C/C1=C/C=C1\CCC[C@]2(C)[C@@H]([C@H](C)CCCC(C)C)CC[C@@H]12
Reply: 94.6

Task item: Answer with the recorded Vitamin content (%) of initially incorporated amount of Cc1cc2nc3c(=O)[nH]c(=O)nc-3n(C[C@H](O)[C@H](O)[C@H](O)COP(=O)(O)O)c2cc1C [Vitamin B2, sodium riboflavin phosphate] only.
Reply: 96.3

Task item: Specify Vitamin content (%) of initially incorporated amount for CC(=O)Oc1c(C)c(C)c2c(c1C)CCC(C)(CCC[C@H](C)CCC[C@H](C)CCCC(C)C)O2 (stereo partly drawn) [Vitamin E, tocopherol acetate] and stop.
Reply: 99.4

====

Assay: Vitamin contents in transfusion fluid containers of Examples 4 and 5 after autoclaving and 40° C. four-month storage, bioassay (vitamin B12, biotin) or HPLC (other vitamins)
Assay type: physicochemical
Conditions: Example 5 transfusion fluid container; immediately after sterilization
Assignment: determine reported Vitamin content, percentage (%) of the initially incorporated amount for the given compounds.
Give just the numeric value; % need not be written.

Task item: Identify measured Vitamin content, percentage (%) of the initially incorporated amount corresponding to Cc1ncc(CO)c(CO)c1O.Cl [Pyridoxine hydrochloride (B6), pyridoxine hydrochloride]
Reply: 99.7

Task item: Specify measured Vitamin content, percentage (%) of the initially incorporated amount for CC(=O)Oc1c(C)c(C)c2c(c1C)CCC(C)(CCC[C@H](C)CCC[C@H](C)CCCC(C)C)O2 (stereo partly drawn) [Vitamin E, tocopherol acetate] .
Reply: 95.3

Task item: # return recorded Vitamin content, percentage (%) of the initially incorporated amount for entry CCCCCCCCCCCCCCCC(=O)OC/C=C(C)/C=C/C=C(C)/C=C/C1=C(C)CCCC1(C)C [Vitamin A, retinol palmitate]
Reply: 86.5

Task item: Given the compound C=C1CC[C@H](O)C/C1=C/C=C1\CCC[C@]2(C)[C@@H]([C@H](C)CCCC(C)C)CC[C@@H]12 , write its reported Vitamin content, percentage (%) of the initially incorporated amount.
Reply: 90.1

Task item: Recall and state the measured Vitamin content, percentage (%) of the initially incorporated amount for NC(=O)c1cccnc1 [Nicotinamide, nicotinamide] .
Reply: 98.2

Task item: Please indicate Vitamin content, percentage (%) of the initially incorporated amount recorded for O=C1O[C@H]([C@@H](O)CO)C(O)=C1O
Reply: 97.8

Task item: Give Vitamin content, percentage (%) of the initially incorporated amount for CC(C)(CO)[C@@H](O)C(=O)NCCCO
Reply: 98.5

Task item: Please give the documented Vitamin content, percentage (%) of the initially incorporated amount of CC1=C(C/C=C(\C)CCC[C@H](C)CCC[C@H](C)CCCC(C)C)C(=O)c2ccccc2C1=O
Reply: 95.8

Task item: Give Vitamin content, percentage (%) of the initially incorporated amount for the following compound: O=C(O)CCCC[C@@H]1SC[C@@H]2NC(=O)N[C@@H]21
Reply: 98.7

====

Experiment: Vitamin content of solution (C) in polyolefin holders after autoclaving and storage at 40° C. for four months, measured through HPLC (Example 3)
Type: physicochemical
Conditions: holder No. 1, polyethylene, 30 μm, resin 7.4 cm^3 per μmol vitamin D; 40° C., 4 months
What Vitamin content (%) of initially incorporated amount was measured for each of the following?
Kindly answer with a numeric value in %, unit omitted.

Task item: Please list Vitamin content (%) of initially incorporated amount recorded for the compound CC(=O)Oc1c(C)c(C)c2c(c1C)CCC(C)(CCC[C@H](C)CCC[C@H](C)CCCC(C)C)O2 (stereo partly drawn) [Vitamin E, tocopherol acetate]
Reply: 98.3

Task item: Consider the compound CC1=C(C/C=C(\C)CCC[C@H](C)CCC[C@H](C)CCCC(C)C)C(=O)c2ccccc2C1=O [Vitamin K, phytonadione] . State its measured Vitamin content (%) of initially incorporated amount.
Reply: 91.3

Task item: Give Vitamin content (%) of initially incorporated amount for the following compound: O=C1O[C@H]([C@@H](O)CO)C(O)=C1O [Vitamin C, ascorbic acid]
Reply: 94.3

Task item: Give me measured Vitamin content (%) of initially incorporated amount, please, for this compound: CCCCCCCCCCCCCCCC(=O)OC/C=C(C)/C=C/C=C(C)/C=C/C1=C(C)CCCC1(C)C [Vitamin A, retinol palmitate]
Reply: 80.7

Task item: State, in one line, measured Vitamin content (%) of initially incorporated amount of C=C1CC[C@H](O)C/C1=C/C=C1\CCC[C@]2(C)[C@@H]([C@H](C)CCCC(C)C)CC[C@@H]12 [Vitamin D3, cholecalciferol]
Reply: 86.2

Task item: Respond only with Vitamin content (%) of initially incorporated amount recorded for Cc1cc2nc3c(=O)[nH]c(=O)nc-3n(C[C@H](O)[C@H](O)[C@H](O)COP(=O)(O)O)c2cc1C [Vitamin B2, sodium riboflavin phosphate]
Reply: 90.7

====

Experiment: Vitamin content of solution (C) in polyolefin holders after autoclaving and storage at 40° C. for four months, measured through HPLC (Example 3)
Assay type: physicochemical
Conditions: holder No. 2, polyethylene, 100 μm, resin 18.5 cm^3 per μmol vitamin D; 40° C., 4 months
Protocol: Solution (C) (4 ml) prepared in Example 1 was charged into each of holders made of the materials shown in Table 3, to thereby obtain a holder which contains a solution of vitamin D3. Each of these holders containing a solution of vitamin D3 was subjected to autoclaving and wrapped in a nylon multi-layered-film bag together with a deoxidizing agent (trade name: Ageless, product of Mitsubishi Gas Chem. Co., Inc.). […] Thereafter, the content of each vitamin in each holder was measured through HPLC. […]
Please enter MET where Vitamin content (%) of initially incorporated amount is greater than or equal to 90%, and NOT MET where it is lower.

Task item: Hello, I need to know if C=C1CC[C@H](O)C/C1=C/C=C1\CCC[C@]2(C)[C@@H]([C@H](C)CCCC(C)C)CC[C@@H]12 has measured Vitamin content (%) of initially incorporated amount not below 90%. Thanks!
Reply: NOT MET

Task item: Check if Vitamin content (%) of initially incorporated amount >= 90% (inclusive). Item: CCCCCCCCCCCCCCCC(=O)OC/C=C(C)/C=C/C=C(C)/C=C/C1=C(C)CCCC1(C)C [Vitamin A, retinol palmitate]
Reply: NOT MET

Task item: Decide: Vitamin content (%) of initially incorporated amount of O=C1O[C@H]([C@@H](O)CO)C(O)=C1O >= 90%?
Reply: MET

Task item: Confirm if Vitamin content (%) of initially incorporated amount reported for the compound CC(=O)Oc1c(C)c(C)c2c(c1C)CCC(C)(CCC[C@H](C)CCC[C@H](C)CCCC(C)C)O2 (stereo partly drawn) [Vitamin E, tocopherol acetate] is 90% or above.
Reply: MET
